- RUN_DESCRIPTION: binders of probe aFSTL3 on microarray, primary screen, stem cell growth factor project, biochemical, small-molecule microarray, fluorescence 635/667 (AID 1064);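 note: measures binding of the biotinylated anti-FSTL3 antibody to printed compounds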
- EXPERIMENTAL_CONDITIONS: higher = more signal
Listing: composite z-score of selected compounds

Please review the entries below; each comes with its answer.
CC(C)CN1CCc2nc(-c3ccccc3)c3c(c2C1)CO[C@@H](C)C3: -0.277
C[C@@H]1C=CCC(=O)OC[C@H](C)C(=O)N[C@@H](Cc2ccccc2)C(=O)OC1: -0.553

// returns reported composite z-score for input `CCCC[C@H]1CN2[C@@H](CC[C@@H](C)[C@@H]2c2ccc(Br)cc2)C(=O)O1`
-0.333

Find the recorded composite z-score belonging to `O=C1[C@H]2[C@H]3[C@H](O)[C@H](O)CC(=NOCc4ccccc4)[C@H]3CC[C@H]2C(=O)N1C1CCCCC1` and report it.
-0.483
